Quick reference for Population Fragmented Nuclei (%) among some compounds
tested on: Fibroblast; assay: Multiplex assay against human fibroblast; format: toxicity, cell-based; details: 24 h, 10 µM, compound concentration 10 uM, replicate 1
# answer = value followed by unit

## Input Bench note: what Population Fragmented Nuclei (%) did Cc1nc(N2CC[C@H](O)C2)ncc1-c1cc(C(F)(F)F)cc2[nH]ncc12 show?
## Output 22%

## Input Bench note: what Population Fragmented Nuclei (%) did Cc1ccccc1C(c1ccccc1C)N1C2CCC1CC(O)(c1ccccc1)C2 (stereo not drawn) show?
## Output 23%

## Input Bench note: what Population Fragmented Nuclei (%) did C=CC(=O)Nc1cccc(Sc2nc(Nc3ccc(N4CCN(C)CC4)cc3)ncc2Cl)c1 show?
## Output 34%

## Input Bench note: what Population Fragmented Nuclei (%) did C=CC(=O)Nc1cccc(Oc2nc(Nc3ccc(N4CCN(C)CC4)cc3OC)ncc2Cl)c1 show?
## Output 33%

## Input Bench note: what Population Fragmented Nuclei (%) did CCc1ccc(OCc2ccccc2C(=O)Nc2ccc3nc(C)cc(N)c3c2)cc1.Cl show?
## Output 25%

## Input Bench note: what Population Fragmented Nuclei (%) did CC(C)OC(=O)N1CCC(Oc2ncnc3c2cnn3-c2ccc(S(C)(=O)=O)cc2F)CC1 show?
## Output 24%

## Input Bench note: what Population Fragmented Nuclei (%) did CC(C)CC(=O)Nc1[nH]nc2c1CN(C(=O)C1CCN(C)CC1)C2(C)C show?
## Output 23%

## Input Bench note: what Population Fragmented Nuclei (%) did COc1cc(Nc2nccc(-c3cnn4nc(OC)ccc34)n2)cc(C(F)(F)F)c1 show?
## Output 57%

---

tested on: Fibroblast; experiment: Multiplex assay against human fibroblast; format: toxicity, cell-based; settings: 12 h, 1 µM, compound concentration 1 uM, replicate 2
Classification field: Met = Population Normal (%) at or over 90%; Not met = Population Normal (%) under 90%.

Example entries and their recorded answers appear below.
## Input Record COc1ccc(-c2ccc3ncc4c(c3c2)n(-c2ccc(N3CCNCC3)c(C(F)(F)F)c2)c(=O)n4C)cn1.O=C(O)/C=C\C(=O)O ; criterion: Population Normal (%) no lower than 90%. Met?
## Output Not met

## Input Record CC(C)CC(=O)Nc1[nH]nc2c1CN(C(=O)C1CCN(C)CC1)C2(C)C ; criterion: Population Normal (%) no lower than 90%. Met?
## Output Not met

## Input Record C=CC(=O)Nc1cccc(Sc2nc(Nc3ccc(N4CCN(C)CC4)cc3)ncc2Cl)c1 ; criterion: Population Normal (%) no lower than 90%. Met?
## Output Not met

## Input Record CCc1ccc(OCc2ccccc2C(=O)Nc2ccc3nc(C)cc(N)c3c2)cc1.Cl ; criterion: Population Normal (%) no lower than 90%. Met?
## Output Not met

## Input Record C[C@]12CC[C@@H]3c4ccc(O)cc4CC[C@H]3[C@@H]1CC[C@@H]2O ; criterion: Population Normal (%) no lower than 90%. Met?
## Output Met

Next:
## Input Record C=CC(=O)Nc1ccc2[nH]c(=O)n(C3CCN(Cc4ccc(-c5nc6cc[nH]c(=O)c6cc5-c5ccccc5)cc4)CC3)c2c1 ; criterion: Population Normal (%) no lower than 90%. Met?
## Output Not met

## Input Record O=c1[nH]c2ccccc2n1C1CCN(Cc2ccc(-c3[nH]c4cc5ncnc5cc4nc3-c3ccccc3)cc2)CC1 ; criterion: Population Normal (%) no lower than 90%. Met?
## Output Not met

## Input Record Cl.O=C(O)c1cc(-c2ccc(C3CCNCC3)cc2)c2ccc(-c3ccc(C(F)(F)F)cc3)cc2c1 ; criterion: Population Normal (%) no lower than 90%. Met?
## Output Met

## Input Record COc1ccccc1CN[C@H]1C2CCN(CC2)[C@H]1C(c1ccccc1)c1ccccc1 ; criterion: Population Normal (%) no lower than 90%. Met?
## Output Met

## Input Record CC(C)Oc1ccccc1C(=O)Nc1ccccc1C(=O)Nc1cccc(S(=O)(=O)C(F)(F)F)c1 ; criterion: Population Normal (%) no lower than 90%. Met?
## Output Met

## Input Record Cc1ccc2c(c1)c1c(n2CCc2ccc(C)nc2)CCN(C)C1 [LATREPIRDINE] ; criterion: Population Normal (%) no lower than 90%. Met?
## Output Not met
